Reported CLint scaled at […] is given for each of the following molecules.
# ASSAY NAME: Apparent clearance in CD-1 mouse liver microsomes at […] incubated for 5 mins prior to NADPH addition measured after 30 mins by LC/MS/MS analysis
# Assay type: ADME
# REPORTED CONDITIONS: read-out: CL(app)
Report the figure in mL/min/kg without appending any unit label.

# MOLECULE, CLint scaled at […] (mL/min/kg)
measured = [
    ("C[C@]12CC[C@H]3[C@@H](CCC4=CC(=O)CC[C@@]43C)[C@@H]1CC[C@@H]2O", 2730),
]

Bench note: what CLint scaled at […] did CC(=O)CC(c1ccccc1)c1c(O)c2ccccc2oc1=O (stereo not drawn) show?
30.9

Moving on to COc1ccc(NC(=O)[C@@H](C)Nc2nc3c(cnn3C3CCCC3)c(=O)[nH]2)cc1
244
